Target: HLA-A*02:01 (Homo sapiens, UniProt P04439, D140Y/D185E/D98H/E176V/E277Q/G131W/G231S/I119V/I121R/I166T/I218V/L300P/L318F/N151K/N90K/P208A/P217A/Q86G/Q94H/R138H/R169H/T345S)
Test: MHC binding assay (UV-ligand exchange, β2m ELISA, peptide exchange yield)
Settings: MHC class I binding score; binding to HLA-A*02:01 ranged by peptide exchange yield (UV-ligand exchange, β2m ELISA)
OBSERVED PROPERTY: Peptide exchange

Answered examples (5):
{"SUBSTANCE": "172 (VLYSYTIITV; listed as Homo sapiens) [compound 172]", "Peptide exchange": "“++” (≧20% = ++)"}
{"SUBSTANCE": "279 (ALWGGTQPLL; listed as Homo sapiens) [compound 279]", "Peptide exchange": "“++” (≧20% = ++)"}
{"SUBSTANCE": "309 (GLFDGVPTTA; listed as Homo sapiens) [compound 309]", "Peptide exchange": "“+++” (≧50 = +++)"}
{"SUBSTANCE": "46 (ILTEENIHL; listed as Homo sapiens) [compound 46]", "Peptide exchange": "“+++” (≧50 = +++)"}
{"SUBSTANCE": "590 (SLIEKLWQT; listed as Homo sapiens) [compound 590]", "Peptide exchange": "“++” (≧20% = ++)"}

For every record below, what is its Peptide exchange?
1. 16 (VLFQGQASL; listed as Homo sapiens) [compound 16]
2. 485 (NVPDSFNEV; listed as Homo sapiens) [compound 485]
3. 546 (VMIAGKVAVV; listed as Homo sapiens) [compound 546]

Response line:
1: “+++” (≧50 = +++); 2: “+++” (≧50 = +++); 3: “+++” (≧50 = +++)
